Reported Relative cAMP EC50 is given for each of the following binders.
# system: hGLP-1R (Homo sapiens, UniProt P43220)
# Sequence (P43220 24-463): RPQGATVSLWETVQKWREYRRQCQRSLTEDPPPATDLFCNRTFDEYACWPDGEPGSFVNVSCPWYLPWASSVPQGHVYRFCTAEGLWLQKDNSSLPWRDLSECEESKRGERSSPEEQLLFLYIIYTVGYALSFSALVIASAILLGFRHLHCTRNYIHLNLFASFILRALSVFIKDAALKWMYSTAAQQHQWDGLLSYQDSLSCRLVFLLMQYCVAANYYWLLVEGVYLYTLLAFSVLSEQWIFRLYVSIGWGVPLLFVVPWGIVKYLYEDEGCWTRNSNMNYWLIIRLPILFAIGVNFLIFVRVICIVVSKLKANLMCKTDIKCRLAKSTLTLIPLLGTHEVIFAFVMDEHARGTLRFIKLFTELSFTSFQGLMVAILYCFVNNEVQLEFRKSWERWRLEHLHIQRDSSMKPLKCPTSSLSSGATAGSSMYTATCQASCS
# protocol-details: cell-based or functional assay
Non-standard residues stand in square brackets, D forms with d. No end group written: not given here. αMePhe(2-F) = C[C@](N)(Cc1ccccc1F)C(=O)O; Aib = CC(C)(N)C(=O)O
Field: numeric (nM). Do not append units.

For orientation, consider the following solved cases.
YXQGTXTSDXXIXLDXKAAXEFIEXLIEGGPSSGAPPPSGTGX (synthetic construct; SITE 2: note = 2-Aminoisobutyric Acid; SITE 6: note = alpha-methyl-2-fluoro-L-phenylalanine; SITE 10: note = 3-(4-Pyridyl)-L-alanine; SITE 11: note = alpha-methyl-L-serine; SITE 13: note = alpha-methyl-leucine; SITE 16: note = L-ornithine; SITE 17: note = Lysine is chemically mo) [Example 724]    0.256
Y[Aib]QGT[αMePhe(2-F)]TSDYSKLLDKIAQKAFIEYLIEGGPSSGAPPPEGE-NH2 (not fully specified (residue 20)) [Example 357]    0.625
YXQGTFTSDFSXXLDKKAQXAFIEYLLEXGPSSGAPPPSGX (synthetic construct; SITE 2: note = 2-Aminoisobutyric Acid; SITE 12: note = L-ornithine; SITE 13: note = alpha-methyl-leucine; SITE 17: note = Lysine is chemically modified through conjugation of the epsilon-amino group of the Lysine side chain with (2-[2-(2-Amino-ethoxy)-ethoxy]-acetyl)-(gamma-Glu)) [Example 279]    5.77
YXQGTFTSDXSQXLDKKAQXAFIEYLLAGGPSSGAPPPSGSEE (synthetic construct; SITE 2: note = 2-Aminoisobutyric Acid; SITE 10: note = 3-(4-Pyridyl)-L-alanine; SITE 13: note = alpha-methyl-leucine; SITE 17: note = Lysine is chemically modified through conjugation of the epsilon-amino group of the Lysine side chain with (gamma-Glu)2-CO-(CH2)16-CO2H; SITE 20:) [Example 1036]    6.87
YXQGTFTSDFSXXLDKKAQXAFIEYLLEAGPSSGAPPPSGE (synthetic construct; SITE 2: note = 2-Aminoisobutyric Acid; SITE 12: note = L-ornithine; SITE 13: note = alpha-methyl-leucine; SITE 17: note = Lysine is chemically modified through conjugation of the epsilon-amino group of the Lysine side chain with (2-[2-(2-Amino-ethoxy)-ethoxy]-acetyl)2-(gamma-Glu)) [Example 128]    3.5

// switching to the query binder
Request: Param item = YXQGTXTSDXXIXLDXKAAXEFIEXLIEGGPSSGEPPPSGTE (synthetic construct; SITE 2: note = 2-Aminoisobutyric Acid; SITE 6: note = alpha-methyl-2-fluoro-L-phenylalanine; SITE 10: note = 3-(4-Pyridyl)-L-alanine; SITE 11: note = alpha-methyl-L-serine; SITE 13: note = alpha-methyl-leucine; SITE 16: note = L-ornithine; SITE 17: note = Lysine is chemically mo) [Example 719] ; retrieve measured Relative cAMP EC50.
Response: 0.22
